The measured values listed here are drawn from ChEMBL document CHEMBL4359852.

# Tested on: Escherichia coli
# methodNotes: Antibacterial activity against Escherichia coli JM109 assessed as reduction in bacterial cell growth incubated for overnight by two-fold serial dilution method
# Type: functional
Binary label based on MIC with cut-off 100 µg/mL: below gives True, not below gives False.

Please state whether MIC is below 100 µg/mL for CCCCNCC(O)CN1CCN(c2cccc3c2CCC(=O)N3)CC1.Cl (racemic) False

Next record, please: `CCCCNC[C@@H](O)CN1CCN(c2cccc3c2CCC(=O)N3)CC1.Cl` False

Next record, please: CCn1cc(C(=O)O)c(=O)c2cc(F)c(N3CCNCC3)cc21 [NORFLOXACIN] True

Next record, please: Cc1ccccc1NCC(O)CN1CCN(c2cccc3c2CCC(=O)N3)CC1.Cl (racemic) False

Next record, please: Cl.O=C1CCc2c(cccc2N2CCN(CC(O)Cn3cnnc3)CC2)N1 (racemic) True

Next record, please: `Cl.O=C1CCc2c(cccc2N2CCN(C[C@@H](O)CNc3ccccc3)CC2)N1` False

Next record, please: `Cl.O=C1CCc2c(cccc2N2CCN(C[C@H](O)CNc3ccc(Cl)cc3)CC2)N1` False

Next record, please: COc1ccc(NCC(O)CN2CCN(c3cccc4c3CCC(=O)N4)CC2)cc1.Cl (racemic) True

Next record, please: Cl.O=C1CCc2c(cccc2N2CCN(CC(O)CN3CCNCC3)CC2)N1 (racemic) False

Next record, please: Cl.O=C1CCc2c(cccc2N2CCN(CC(O)CNc3cccc4ccccc34)CC2)N1 (racemic) False

Next record, please: Cl.O=C1CCc2c(cccc2N2CCN(CC(O)CN3CCCCCC3)CC2)N1 (racemic) False

Next record, please: Cl.O=C1CCc2c(cccc2N2CCN(CC(O)CN3CCCC3)CC2)N1 (racemic) False

Next record, please: Cl.O=C1CCc2c(cccc2N2CCN(CC(O)CNc3ccccc3Cl)CC2)N1 (racemic) False

Next record, please: `COc1ccc(NC[C@@H](O)CN2CCN(c3cccc4c3CCC(=O)N4)CC2)cc1.Cl` True

Next record, please: Cc1cccc(C)c1NCC(O)CN1CCN(c2cccc3c2CCC(=O)N3)CC1.Cl (racemic) False

Next record, please: CN[C@@H]1[C@H](O[C@H]2[C@H](O[C@H]3[C@H](O)[C@@H](O)[C@H](N=C(N)N)[C@@H](O)[C@@H]3N=C(N)N)O[C@@H](C)[C@]2(O)C=O)O[C@@H](CO)[C@H](O)[C@H]1O.CN[C@@H]1[C@H](O[C@H]2[C@H](O[C@H]3[C@H](O)[C@@H](O)[C@H](N=C(N)N)[C@@H](O)[C@@H]3N=C(N)N)O[C@@H](C)[C@]2(O)C=O)O[C@@H](CO)[C@H](O)[C@H]1O.O=S(=O)(O)O.O=S(=O)(O)O.O=S(=O)(O)O [STREPTOMYCIN SULFATE] True

----------
# System: Saccharomyces cerevisiae
# methodNotes: Inhibition of Saccharomyces cerevisiae CGMCC 2.145 chitin synthase using GlcNAc and UDP-GlcNAc as substrate at 300 ug/ml incubated for 60 mins by microplate reader analysis relative to control
Hi there, I'd appreciate the recorded inhibition for every entry that follows.
Write the answer as a number in %, unit excluded.

Reported inhibition for Cl.O=C1CCc2c(cccc2N2CCN(CC(O)CN(CCO)CCO)CC2)N1 (racemic) : what is it? 34.5

Next record, please: COc1ccc(NCC(O)CN2CCN(c3cccc4c3CCC(=O)N4)CC2)cc1.Cl (racemic) 84.9

Next record, please: Cl.O=C1CCc2c(cccc2N2CCN(CC(O)CNCc3ccc(Cl)cc3)CC2)N1 (racemic) 42.5

Next record, please: CCCCNCC(O)CN1CCN(c2cccc3c2CCC(=O)N3)CC1.Cl (racemic) 63.7

Next record, please: Cc1ccc(NCC(O)CN2CCN(c3cccc4c3CCC(=O)N4)CC2)cc1.Cl (racemic) 17.6

Next record, please: Cc1cccc(C)c1NCC(O)CN1CCN(c2cccc3c2CCC(=O)N3)CC1.Cl (racemic) 40.7

Next record, please: CC(C)(C)NCC(O)CN1CCN(c2cccc3c2CCC(=O)N3)CC1.Cl (racemic) 48.3

Next record, please: CCN(CC)CC(O)CN1CCN(c2cccc3c2CCC(=O)N3)CC1.Cl (racemic) 39.4

Next record, please: Cl.O=C1CCc2c(cccc2N2CCN(CC(O)CN3CCNCC3)CC2)N1 (racemic) 38.6

Next record, please: Cl.O=C1CCc2c(cccc2N2CCN(CC(O)CN3CCCCCC3)CC2)N1 (racemic) 45.4

Next record, please: Cl.O=C1CCc2c(cccc2N2CCN(CC(O)CNc3ccc(Br)cc3)CC2)N1 (racemic) 55.4

Next record, please: Cl.O=C1CCc2c(cccc2N2CCN(CC(O)CNc3cccc4ccccc34)CC2)N1 (racemic) 47.5

Next record, please: Cl.O=C1CCc2c(cccc2N2CCN(CC(O)Cn3ccnc3)CC2)N1 (racemic) 53.3

Next record, please: Cl.O=C1CCc2c(cccc2N2CCN(CC(O)CNc3ccccc3Cl)CC2)N1 (racemic) 52.4

Next record, please: Cl.O=C1CCc2c(cccc2N2CCN(CC(O)CNCc3ccccc3)CC2)N1 (racemic) 18.1

Next record, please: Cl.O=C1CCc2c(cccc2N2CCN(CC(O)CNc3ccccc3)CC2)N1 (racemic) 62.7

----------
# Tested on: Proteus vulgaris
# methodNotes: Antibacterial activity against Bacillus proteus ATCC 8427 assessed as reduction in bacterial cell growth incubated for overnight by two-fold serial dilution method
# Type: functional
Hi there, I'd appreciate the recorded MIC for every entry that follows.
Write the answer as a number in µg/mL, unit excluded.

Reported MIC for `Cl.O=C1CCc2c(cccc2N2CCN(C[C@@H](O)CNc3ccccc3)CC2)N1` : what is it? 256

Next record, please: CCN(CC)CC(O)CN1CCN(c2cccc3c2CCC(=O)N3)CC1.Cl (racemic) 512

Next record, please: Cl.O=C1CCc2c(cccc2N2CCN(CC(O)CNc3ccc(Br)cc3)CC2)N1 (racemic) 128

Next record, please: Cl.O=C1CCc2c(cccc2N2CCN(CC(O)CNc3ccccc3)CC2)N1 (racemic) 128

Next record, please: `COc1ccc(NC[C@@H](O)CN2CCN(c3cccc4c3CCC(=O)N4)CC2)cc1.Cl` 128

Next record, please: Cl.O=C1CCc2c(cccc2N2CCN(CC(O)Cn3ccnc3)CC2)N1 (racemic) 128

Next record, please: COc1ccccc1NCC(O)CN1CCN(c2cccc3c2CCC(=O)N3)CC1.Cl (racemic) 256

Next record, please: `CCCCNC[C@@H](O)CN1CCN(c2cccc3c2CCC(=O)N3)CC1.Cl` 256

Next record, please: Cc1ccccc1NCC(O)CN1CCN(c2cccc3c2CCC(=O)N3)CC1.Cl (racemic) 128

Next record, please: `Cl.O=C1CCc2c(cccc2N2CCN(C[C@H](O)CNc3ccc(Br)cc3)CC2)N1` 256

Next record, please: CC(C)(C)NCC(O)CN1CCN(c2cccc3c2CCC(=O)N3)CC1.Cl (racemic) 256

Next record, please: Cl.O=C1CCc2c(cccc2N2CCN(CC(O)CN3CCCC3)CC2)N1 (racemic) 256

Next record, please: CCn1cc(C(=O)O)c(=O)c2cc(F)c(N3CCNCC3)cc21 [NORFLOXACIN] 2

Next record, please: Cl.O=C1CCc2c(cccc2N2CCN(CC(O)CN(CCO)CCO)CC2)N1 (racemic) 256

Next record, please: Cl.O=C1CCc2c(cccc2N2CCN(CC(O)CNCc3ccccc3)CC2)N1 (racemic) 256

Next record, please: `Cl.O=C1CCc2c(cccc2N2CCN(C[C@@H](O)CNc3ccc(Cl)cc3)CC2)N1` 128

Next record, please: Cc1ccc(NCC(O)CN2CCN(c3cccc4c3CCC(=O)N4)CC2)cc1.Cl (racemic) 64

Next record, please: Cl.O=C1CCc2c(cccc2N2CCN(CC(O)CNc3cccc4ccccc34)CC2)N1 (racemic) 128

Next record, please: `COc1ccc(NC[C@H](O)CN2CCN(c3cccc4c3CCC(=O)N4)CC2)cc1.Cl` 256

----------
Hi there, I'd appreciate the recorded inhibition for every entry that follows.
# Tested on: Saccharomyces cerevisiae
# methodNotes: Inhibition of Saccharomyces cerevisiae CGMCC 2.145 chitin synthase using GlcNAc and UDP-GlcNAc as substrate at 300 ug/ml incubated for 60 mins by microplate reader analysis relative to control
Write the answer as a number in %, unit excluded.

Reported inhibition for COc1ccccc1NCC(O)CN1CCN(c2cccc3c2CCC(=O)N3)CC1.Cl (racemic) : what is it? 45.4

Next record, please: Cc1ccccc1NCC(O)CN1CCN(c2cccc3c2CCC(=O)N3)CC1.Cl (racemic) 28.4

Next record, please: Cl.O=C1CCc2c(cccc2N2CCN(CC(O)CN3CCCCC3)CC2)N1 (racemic) 32.4

Next record, please: Cl.O=C1CCc2c(cccc2N2CCN(CC(O)CN3CCOCC3)CC2)N1 (racemic) 44.7

Next record, please: `NC(=O)OC[C@H](O)[C@@H](O)[C@H](N)C(=O)N[C@H](C(=O)O)[C@H]1O[C@@H](n2cc(CO)c(=O)[nH]c2=O)[C@H](O)[C@@H]1O` 85.1

Next record, please: Cl.O=C1CCc2c(cccc2N2CCN(CC(O)CN3CCCC3)CC2)N1 (racemic) 49.9

Next record, please: Cl.O=C1CCc2c(cccc2N2CCN(CC(O)Cn3cnnc3)CC2)N1 (racemic) 30.8

Next record, please: Cl.O=C1CCc2c(cccc2N2CCN(CC(O)CNc3ccc(Cl)cc3)CC2)N1 (racemic) 59.3
